Test system: HSkMC
measurement protocol: cytotoxicity call (relative viability < 0.9)
test context: 10 µM
Hit rate of the full screen: of about 39,000 compounds, about 1,500 (3.8%) were called active. The full list was thinned out, with actives kept by preference.
quantity measured: cytotoxicity call

Worked cases, cytotoxicity call given:
compound	target system	quantity measured	value observed
C[C@H]1CN([C@@H](C)CO)C(=O)c2cc(NC(=O)Cc3cn(C)c4ccccc34)ccc2O[C@H]1CN(C)Cc1ccc(Cl)c(Cl)c1	HSkMC	cytotoxicity call	inactive
C[C@@H]1CN([C@H](C)CO)C(=O)c2cc(NC(=O)Cc3cn(C)c4ccccc34)ccc2O[C@H]1CN(C)Cc1ccc(Cl)c(Cl)c1	HSkMC	cytotoxicity call	active
COc1ccc2c3c(n(c2c1)C)[C@H](CO)N(C[C@]13CN(Cc2cccc(c2)F)C1)C(=O)C1CCOCC1	HSkMC	cytotoxicity call	inactive
O=C1c2ccc3c4c(ccc(c24)C(=O)N1CCCCO)C(=O)N(CCCCO)C3=O	HSkMC	cytotoxicity call	active
COc1ccc2c3c(n(c2c1)C)[C@@H](CO)N(C[C@]13CN(C1)C(=O)Nc1cccc(c1)F)C(=O)C1CCOCC1	HSkMC	cytotoxicity call	inactive

Task: Consider the compound C[C@H]1CN([C@@H](C)CO)C(=O)c2cccc(NS(=O)(=O)c3ccc(Cl)cc3)c2O[C@@H]1CN(C)Cc1ccc(C(F)(F)F)cc1 and give its measured cytotoxicity call.
Result: inactive

Task: Tell me the measured cytotoxicity call of COc1ccc2c3c(n(c2c1)C)[C@H](CO)N(C[C@]13CCN(CC1)C(=O)c1ccccc1)C(=O)Nc1ccccc1F , please.
Result: active

Task: So what's the measured cytotoxicity call for this one? CC1(C)OC2CC3C4CCC5=CC(=O)CCC5(C)C4(F)C(O)CC3(C)C2(C(=O)CCl)O1 (stereo unspecified)
Result: inactive

Task: Entry under review: C[C@H]1CN([C@@H](C)CO)C(=O)c2cc(NC(=O)Cc3cn(C)c4ccccc34)ccc2O[C@H]1CN(C)Cc1ccc(-c2ccccc2)cc1 . Reported cytotoxicity call?
Result: inactive

Task: Reported cytotoxicity call, compound COc1ccc2c3c(n(c2c1)C)[C@@H](CO)N(C[C@]13CCN(CC1)C(=O)c1ccccc1)C(=O)Nc1ccccc1F : ____
Result: inactive

Task: Suppose we examine the compound COc1ccc(S(=O)(=O)Nc2ccc3c(c2)C(=O)N([C@H](C)CO)C[C@H](C)[C@H](CN(C)C(=O)Nc2ccccc2)OCCCC[C@H](C)O3)cc1 ; what cytotoxicity call value has been reported?
Result: inactive

###

System: HSkMC (human skeletal muscle cells)
measurement protocol: cytotoxicity call (relative viability < 0.9)
test context: 10 µM
Screen size: about 39,000 compounds; about 1,500 (3.8%) were called active. The full list was thinned out, with actives kept by preference.
quantity measured: cytotoxicity call

Below, each entry is followed by its recorded cytotoxicity call result.
C[C@H]1CN([C@@H](C)CO)C(=O)c2c(c3ccccc3n2C)-c2ccccc2CO[C@H]1CN(C)C(=O)c1ccc(F)cc1 inactive
COc1ccccc1CNC(=O)C[C@@H]1C[C@@H]2c3cc(NS(=O)(=O)c4ccc(F)cc4)ccc3O[C@@H]2[C@@H](CO)O1 inactive
CO[C@H]1O[C@H](CO)[C@@H](OC(=O)Nc2cccc(F)c2)[C@H](OC(=O)Nc2ccccc2-c2ccccc2)[C@@H]1OC(=O)Nc1ccccc1-c1ccccc1 active
O=C(c1cn(Cc2cncn2Cc2ccc(Br)cc2)cc1-c1cccc2ccccc12)N1CCOCC1 active
CO[C@H]1O[C@H](CO)[C@@H](OC(=O)Nc2ccccc2-c2ccccc2)[C@H](OC(=O)Nc2ccccc2-c2ccccc2)[C@@H]1OC(=O)Nc1ccccc1-c1ccccc1 inactive

Task: Tell me the measured cytotoxicity call of COc1ccc(CN(C)C[C@H]2OCCCC[C@@H](C)Oc3ccc(NS(=O)(=O)c4ccc(F)cc4)cc3C(=O)N([C@@H](C)CO)C[C@@H]2C)cc1 , please.
Result: inactive
